system: SARS-CoV-2; experiment: Antiviral activity against SARS-CoV-2 (USA-WA1/2020 strain) measured by imaging in HRCE cells at MOI 0.4 after 96 hrs (reported as hit score from 0-1 for on-disease vs off-disease activity: scores >0.6 considered hits); assay type: functional, Homo sapiens
The full ranking holds about 1,600 compounds; the median of “Hit score” is about 0.13, and the highest 2% start at about 0.46. Shown is part of a subset that was picked to be rich in the highest values.
Property: Hit score

1) C[C@]12C=CC(=O)N[C@@H]1CC[C@@H]1[C@@H]2CC[C@]2(C)[C@@H](C(=O)Nc3cc(C(F)(F)F)ccc3C(F)(F)F)CC[C@@H]12 [DUTASTERIDE]
0.3162
2) CC/C=C\C/C=C\C/C=C\C/C=C\C/C=C\CCCC(=O)O [ICOSAPENT]
0.1484
3) Cc1cn(-c2cc(NC(=O)c3ccc(C)c(Nc4nccc(-c5cccnc5)n4)c3)cc(C(F)(F)F)c2)cn1 [NILOTINIB]
0.4816
4) CNC(=O)c1cccc(NC(=O)N2CCC(Oc3ccccc3Cl)CC2)c1
0.1005
5) CCCCCC(=O)O[C@]1(C(C)=O)CC[C@H]2[C@@H]3CCC4=CC(=O)CC[C@]4(C)[C@H]3CC[C@@]21C [HYDROXYPROGESTERONE CAPROATE]
0.1371
6) CO/N=C(\C(=O)N[C@@H]1C(=O)N2C(C(=O)O)=C(CSc3nnnn3C)CS[C@H]12)c1csc(N)n1 [CEFMENOXIME]
0.1641
7) O=[N+]([O-])/N=C1\NCCN1Cc1ccc(Cl)nc1 [IMIDACLOPRID]
0.158
8) N[C@@H](CCN[C@@H](CCN1CC[C@H]1C(=O)O)C(=O)O)C(=O)O
0.1041
9) Cc1ccc(NC(=O)c2ccc(CN3CCN(C)CC3)cc2)cc1Nc1nccc(-c2cccnc2)n1 [IMATINIB]
0.06765

Attribution: ChEMBL document CHEMBL4303122
